Molecular target: BRSK2 (human)
Test: Caliper, Mobility shift assay off-chip
Conditions: compound 1.0 µM
recorded.endpoint: inhibition
Write down the value, and be sure its unit follows.

Past entries and their recorded results:
>>> experimental_result("O=C(CCc1ccc2ccc3ncc(C4CCNCC4)cc3c(=O)c2c1)NCc1ccccn1")
"-3.3%"
>>> experimental_result("Cn1cc(-c2cnc3ccc4ccc(CS(=O)(=O)NCC5CCCCN5)cc4c(=O)c3c2)cn1 (centres undefined)")
"-9.5%"
>>> experimental_result("Cn1cc(-c2cnc3ccc4ccc(CS(=O)(=O)CCc5ccccn5)cc4c(=O)c3c2)cn1")
"2.5%"

In plain terms, `CN(c1ccc2ccc3ncc(-c4cnn(C)c4)cc3c(=O)c2c1)S(=O)(=O)NCc1ccccn1` has a documented inhibition of 6.6%

###

Target: UniProt:P05771
Sequence (P05771 whole entry, looked up): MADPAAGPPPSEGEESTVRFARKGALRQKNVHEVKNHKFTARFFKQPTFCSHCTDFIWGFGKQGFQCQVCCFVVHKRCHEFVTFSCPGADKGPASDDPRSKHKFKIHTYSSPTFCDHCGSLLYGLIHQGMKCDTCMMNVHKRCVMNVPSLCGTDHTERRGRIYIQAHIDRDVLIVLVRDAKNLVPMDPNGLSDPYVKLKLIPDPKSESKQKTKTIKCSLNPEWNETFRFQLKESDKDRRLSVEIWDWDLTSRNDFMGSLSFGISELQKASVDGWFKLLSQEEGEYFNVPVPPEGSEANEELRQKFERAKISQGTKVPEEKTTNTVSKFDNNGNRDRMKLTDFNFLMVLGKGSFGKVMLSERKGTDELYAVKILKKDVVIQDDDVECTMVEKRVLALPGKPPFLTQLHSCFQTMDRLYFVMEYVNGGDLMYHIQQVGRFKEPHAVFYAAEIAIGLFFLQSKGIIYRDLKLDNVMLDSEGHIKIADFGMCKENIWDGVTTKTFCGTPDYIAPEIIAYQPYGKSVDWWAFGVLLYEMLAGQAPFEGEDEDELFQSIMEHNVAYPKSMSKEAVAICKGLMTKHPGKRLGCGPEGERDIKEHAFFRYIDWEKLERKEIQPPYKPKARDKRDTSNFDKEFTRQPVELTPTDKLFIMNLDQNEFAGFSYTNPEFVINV
Test: Caliper, Mobility shift assay off-chip
Details: compound 1.0 µM
recorded.endpoint: inhibition (%)
Give bare numbers, in %.

Completed entries (count: 3):
>>> experimental_result("Cn1cc(-c2cnc3ccc4ccc(CS(=O)(=O)NCC5CCCCN5)cc4c(=O)c3c2)cn1 (centres undefined)")
-18.2
>>> experimental_result("O=C(CCc1ccc2ccc3ncc(C4CCNCC4)cc3c(=O)c2c1)NCc1ccccn1")
-12.2
>>> experimental_result("Cn1cc(-c2cnc3ccc4ccc(CS(=O)(=O)CCc5ccccn5)cc4c(=O)c3c2)cn1")
0.9

// inhibition lookup, compound = `CN(c1ccc2ccc3ncc(-c4cnn(C)c4)cc3c(=O)c2c1)S(=O)(=O)NCc1ccccn1` , result: 8.8

###

For each record, write down the corresponding inhibition.
Biological target: RAF1 (human)
Test: Caliper, Mobility shift assay off-chip
Conditions: compound 1.0 µM
Answers are plain numbers, in %.

// solved cases for inhibition follow
>>> experimental_result("O=C(CCc1ccc2ccc3ncc(C4CCNCC4)cc3c(=O)c2c1)NCc1ccccn1")
-9.1
>>> experimental_result("Cn1cc(-c2cnc3ccc4ccc(CS(=O)(=O)NCC5CCCCN5)cc4c(=O)c3c2)cn1 (stereo not given)")
-0.8
>>> experimental_result("CN(c1ccc2ccc3ncc(-c4cnn(C)c4)cc3c(=O)c2c1)S(=O)(=O)NCc1ccccn1")
-0.8
>>> experimental_result("Cn1cc(-c2cnc3ccc4ccc(CS(=O)(=O)CCc5ccccn5)cc4c(=O)c3c2)cn1")
1.4

Next up:
Here `Cn1cc(-c2cnc3ccc4ccc(CS(N)(=O)=O)cc4c(=O)c3c2)cn1` was tested on RAF1 (human), and its inhibition came to -3.8

###

Record form. Attribute: inhibition. Fill in for each entry.
Target: AKT2 (human) (UniProt P31751)
Sequence (P31751 whole entry, looked up): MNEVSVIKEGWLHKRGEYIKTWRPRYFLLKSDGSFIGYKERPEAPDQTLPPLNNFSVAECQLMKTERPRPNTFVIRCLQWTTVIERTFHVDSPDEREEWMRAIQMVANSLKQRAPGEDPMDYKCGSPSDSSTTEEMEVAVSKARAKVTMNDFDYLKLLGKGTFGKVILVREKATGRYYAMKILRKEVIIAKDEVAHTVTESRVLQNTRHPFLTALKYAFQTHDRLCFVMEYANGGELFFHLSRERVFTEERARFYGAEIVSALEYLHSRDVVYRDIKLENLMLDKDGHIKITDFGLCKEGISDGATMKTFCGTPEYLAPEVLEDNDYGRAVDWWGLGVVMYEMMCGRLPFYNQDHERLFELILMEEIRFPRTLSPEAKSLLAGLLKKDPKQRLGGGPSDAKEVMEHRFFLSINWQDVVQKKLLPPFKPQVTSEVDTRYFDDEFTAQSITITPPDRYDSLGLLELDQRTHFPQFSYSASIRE
Experiment: Caliper, Mobility shift assay off-chip
Conditions: compound 0.1 µM
Answers are plain numbers, in %.

Look over these answered cases.
>>> experimental_result("Cn1cc(-c2cnc3ccc4ccc(CS(=O)(=O)NCC5CCCCN5)cc4c(=O)c3c2)cn1 (configuration not stated)")
0.7
>>> experimental_result("CN(c1ccc2ccc3ncc(-c4cnn(C)c4)cc3c(=O)c2c1)S(=O)(=O)NCc1ccccn1")
-4.1
>>> experimental_result("Cn1cc(-c2cnc3ccc4ccc(CS(=O)(=O)NC5CCCCC5)cc4c(=O)c3c2)cn1")
2
>>> experimental_result("Cn1cc(-c2cnc3ccc4ccc(CS(=O)(=O)CCc5ccccn5)cc4c(=O)c3c2)cn1")
-0.1
>>> experimental_result("O=C(CCc1ccc2ccc3ncc(C4CCNCC4)cc3c(=O)c2c1)NCc1ccccn1")
-1.5

Report inhibition for each item below.
1. O=c1c2cc(CS(=O)(=O)NCc3ccccn3)ccc2ccc2ncc(C3CCNCC3)cc12
2. Cn1cc(-c2cnc3ccc4ccc(CS(N)(=O)=O)cc4c(=O)c3c2)cn1

Reply:
-1.6
1.7
